- assay: Compound solubility in water
- Format: physicochemical
- conditions_used: in water
Assign yes (1) whenever solubility does not fall below 4 µg/mL; assign no (0) whenever it does.

compound	classification
Cc1cc(-c2cc(F)cc(C#N)c2)nc2c(C(=O)NC(C3CC3)C(F)(F)F)ncn12 (centres unmarked)	no (0)
COc1c(C#N)cccc1-c1cc(C)n2cnc(C(=O)N[C@@H](C)C3CC3)c2n1	yes (1)
Cc1cc(-c2cccc3c2OCO3)nc2c(C(=O)N[C@@H](C)C3CC3)ncn12	no (0)
Cc1cc(C)n2cnc(C(=O)N[C@@H]3[C@@H]4CC[C@H]3C[C@@H](OC(C)(C)C)C4)c2n1	yes (1)
